Species on record: Rattus norvegicus
assay_protocol: DrugMatrix - Regimen: Daily Repeat
Type: toxicity, organism-based, Sprague-Dawley
Set-up: regimen Daily Repeat, gender Male, age 6-8 weeks
condition: in vivo, ip, 0.5 mg/kg, 120 h, tissue Blood, route intraperitoneal, dose level High, time 5 day, vehicle 100 % SALINE

chain_sequence	ABSOLUTE EOSINOPHIL (cells/µL)
CISPLATIN	92

---

Organism: Rattus norvegicus
assay_protocol: DrugMatrix - Regimen: Daily Repeat
Type: toxicity, organism-based, Sprague-Dawley
Parameters: regimen Daily Repeat, gender Male, age 6-8 weeks
condition: in vivo, po, 0 mg/kg, 72 h, tissue Blood, route oral GAVAGE, dose level Control, time 3 day, […]

compound	measurement_units	ERYTHROCYTE COUNT
CC(C)n1c(/C=C/C(O)CC(O)CC(=O)O)c(-c2ccc(F)cc2)c2ccccc21 (stereo not given) [FLUVASTATIN]	x10E6/uL	5.46
CSc1ccc2c(c1)N(CCC1CCCCN1C)c1ccccc1S2 (stereo not given) [THIORIDAZINE]	x10E6/uL	5.53
Cn1cnc([N+](=O)[O-])c1Sc1ncnc2nc[nH]c12 [AZATHIOPRINE]	x10E6/uL	5.03
CC(=O)[C@H]1CC[C@H]2[C@@H]3CCC4=CC(=O)CC[C@]4(C)[C@H]3CC[C@]12C [PROGESTERONE]	x10E6/uL	5.6
CC(C)(Oc1ccc(CCNC(=O)c2ccc(Cl)cc2)cc1)C(=O)O [BEZAFIBRATE]	x10E6/uL	5.2
CC1=C(/C=C/C(C)=C/C=C/C(C)=C\C(=O)O)C(C)(C)CCC1 [ISOTRETINOIN]	x10E6/uL	5.53
CCCCCCCCCc1ccc(O)cc1 [4-NONYLPHENOL]	x10E6/uL	5.87
COC1=CC(=O)C[C@@H](C)[C@]12Oc1c(Cl)c(OC)cc(OC)c1C2=O [GRISEOFULVIN]	x10E6/uL	5.51
COCc1c(C(C)C)nc(C(C)C)c(/C=C/[C@@H](O)C[C@@H](O)CC(=O)O)c1-c1ccc(F)cc1 [CERIVASTATIN]	x10E6/uL	5.87
c1ccc2[nH]c(-c3cscn3)nc2c1 [THIABENDAZOLE]	x10E6/uL	5.44
CN(C)CCCC1(c2ccc(F)cc2)OCc2cc(C#N)ccc21 (stereo not given) [CITALOPRAM]	x10E6/uL	5.6
COc1ccc2c(c1)c(CC(=O)OCC(=O)O)c(C)n2C(=O)c1ccc(Cl)cc1 [ACEMETACIN]	x10E6/uL	5.8
CCCC[C@@H](CC)COC(=O)c1ccccc1C(=O)OC[C@@H](CC)CCCC [BIS(2-ETHYLHEXYL)PHTHALATE]	x10E6/uL	5.44
C=CCN [ALLYLAMINE]	x10E6/uL	6.82
Oc1c(Cl)cc(Cl)cc1Sc1cc(Cl)cc(Cl)c1O [BITHIONOL]	x10E6/uL	5.46

---

Organism: Rattus norvegicus
assay_protocol: DrugMatrix - Regimen: Daily Repeat
Format: toxicity, organism-based, Sprague-Dawley
Set-up: regimen Daily Repeat, gender Male, age 6-8 weeks
condition: in vivo, po, 0 mg/kg, 72 h, tissue Blood, route oral GAVAGE, dose level Control, time 3 day, vehicle 100 % WATER
Listing: HEMATOCRIT of selected compounds
observed_property: HEMATOCRIT (%)

compound	observed_property	numeric_value
CNCCC=C1c2ccccc2CCc2ccccc21	HEMATOCRIT	33.07
CC(C)(S)[C@@H](N)C(=O)O	HEMATOCRIT	33.02
CN1CCN(C(=O)OC2c3nccnc3C(=O)N2c2ccc(Cl)cn2)CC1 (stereo not given)	HEMATOCRIT	35.33
Fc1ccc([C@@H]2CCNC[C@H]2COc2ccc3c(c2)OCO3)cc1	HEMATOCRIT	33.63
CC(CCc1ccccc1)NCC(O)c1ccc(O)c(C(N)=O)c1 (stereo not given)	HEMATOCRIT	35.33
COc1cc2c(N3CCN(C(=O)Nc4ccc(OC(C)C)cc4)CC3)ncnc2cc1OCCCN1CCCCC1	HEMATOCRIT	42.62
Nc1ccc(S(=O)(=O)Nc2ccnn2-c2ccccc2)cc1	HEMATOCRIT	34.38
CC1COc2c(N3CCN(C)CC3)c(F)cc3c(=O)c(C(=O)O)cn1c23 (stereo not given)	HEMATOCRIT	32.43
COc1cccc(C2(O)CCCCC2CN(C)C)c1 (stereo not given)	HEMATOCRIT	33.63
CC1(C)S[C@@H]2[C@H](NC(=O)[C@H](N)c3ccc(O)cc3)C(=O)N2[C@H]1C(=O)O	HEMATOCRIT	37.62
NCC1(CC(=O)O)CCCCC1	HEMATOCRIT	34.15
Clc1ccc(C(c2ccccc2Cl)C(Cl)Cl)cc1 (stereo not given)	HEMATOCRIT	35.77
NC(=O)c1ncn([C@@H]2O[C@H](CO)[C@@H](O)[C@H]2O)n1	HEMATOCRIT	36.35
C[C@]12Cc3c[nH]nc3C[C@@H]1CC[C@@H]1[C@@H]2CC[C@@]2(C)[C@H]1CC[C@]2(C)O	HEMATOCRIT	33.63
Cn1cnc([N+](=O)[O-])c1Sc1ncnc2nc[nH]c12	HEMATOCRIT	34.5
COc1ccc(C(CN(C)C)C2(O)CCCCC2)cc1 (stereo not given)	HEMATOCRIT	33.47
CN1CCC[C@H]1c1cccnc1	HEMATOCRIT	32.43
Cc1cc(NS(=O)(=O)c2ccc(N)cc2)no1	HEMATOCRIT	33.47
O=C1NC(=O)C(c2ccccc2)(c2ccccc2)N1	HEMATOCRIT	33.07
NNC(=O)c1ccncc1	HEMATOCRIT	33.43
